tested on: Escherichia coli TOP10; experiment: shrunken log2 fold change of peptide-encoding DNA abundance (4.5 h post-induction vs induction); higher = less antimicrobial activity (less host growth inhibition); settings: time post-induction: 4.5 h; library: site-saturation at positions 5, 18, 19, 20
Readout Name: shrunken log2 fold change

> print(dat)
             sequence.data  test.value
1  RRIRERPPRLPRPRPRPHQHPRP      -0.449
2  RRIRTRPPRLPRPRPRPITAPRP     -0.0416
3  RRIRWRPPRLPRPRPRPFKYPRP    -0.00867
4  RRIRGRPPRLPRPRPRPGKLPRP       0.461
5  RRIRPRPPRLPRPRPRPQLAPRP       0.417
6  RRIRDRPPRLPRPRPRPIPAPRP      0.0318

====

system: Escherichia coli TOP10; assay: shrunken log2 fold change of peptide-encoding DNA abundance (4.5 h post-induction vs induction); higher = less antimicrobial activity (less host growth inhibition); conditions: time post-induction: 4.5 h; library: site-saturation at positions 5, 18, 19, 20
Readout Name: shrunken log2 fold change

> print(dat)
              sequence.data  test.value
 1  RRIRWRPPRLPRPRPRPSTHPRP       0.667
 2  RRIRDRPPRLPRPRPRPFTHPRP     -0.0968
 3  RRIRARPPRLPRPRPRPMRWPRP       0.618
 4  RRIRIRPPRLPRPRPRPSLHPRP      -0.824
 5  RRIRQRPPRLPRPRPRPCWWPRP      0.0676
 6  RRIRYRPPRLPRPRPRPCTWPRP      -0.303
 7  RRIRYRPPRLPRPRPRPRMTPRP      -0.131
 8  RRIRHRPPRLPRPRPRPPQWPRP      0.0657
 9  RRIRFRPPRLPRPRPRPIWAPRP      0.0219
10  RRIRPRPPRLPRPRPRPFLNPRP      -0.622
11  RRIRNRPPRLPRPRPRPARDPRP        0.27
12  RRIRLRPPRLPRPRPRPWAQPRP       0.249
13  RRIRFRPPRLPRPRPRPFFLPRP       -0.32
14  RRIRYRPPRLPRPRPRPCFLPRP          -1
15  RRIRQRPPRLPRPRPRPYYQPRP      -0.284
16  RRIRARPPRLPRPRPRPVHMPRP    -0.00775
17  RRIRTRPPRLPRPRPRPLDDPRP       0.115
18  RRIRPRPPRLPRPRPRPDGDPRP       0.152
19  RRIRFRPPRLPRPRPRPACRPRP       0.192
20  RRIRERPPRLPRPRPRPTGMPRP      -0.128
21  RRIRHRPPRLPRPRPRPDVMPRP      -0.374
22  RRIRSRPPRLPRPRPRPNFWPRP      0.0869
23  RRIRYRPPRLPRPRPRPLKAPRP       0.141
24  RRIRFRPPRLPRPRPRPITIPRP      -0.195
25  RRIRFRPPRLPRPRPRPPRGPRP       0.685
26  RRIRVRPPRLPRPRPRPTKCPRP      -0.458
27  RRIRKRPPRLPRPRPRPRTEPRP        1.04
28  RRIRCRPPRLPRPRPRPPLTPRP       0.578
29  RRIRQRPPRLPRPRPRPPNYPRP       0.195
30  RRIRHRPPRLPRPRPRPAFFPRP      0.0438
31  RRIRHRPPRLPRPRPRPWYLPRP      -0.748
32  RRIRIRPPRLPRPRPRPDMTPRP       -0.01
33  RRIRWRPPRLPRPRPRPDVVPRP      0.0719
34  RRIRVRPPRLPRPRPRPINRPRP      -0.239
35  RRIRARPPRLPRPRPRPFGQPRP     -0.0155

====

system: Escherichia coli TOP10; assay: shrunken log2 fold change of peptide-encoding DNA abundance (4.5 h post-induction vs induction); higher = less antimicrobial activity (less host growth inhibition); conditions: time post-induction: 4.5 h; library: site-saturation at positions 5, 18, 19, 20
true means recorded shrunken log2 fold change is -0.1 or above; false means it is below -0.1.

> print(dat)
             sequence.data  category.label
1  RRIRERPPRLPRPRPRPKRVPRP            true
2  RRIRCRPPRLPRPRPRPWAWPRP           false
3  RRIRERPPRLPRPRPRPRKVPRP            true
4  RRIRIRPPRLPRPRPRPREVPRP           false
5  RRIRSRPPRLPRPRPRPHQWPRP           false
6  RRIRPRPPRLPRPRPRPSMNPRP           false
7  RRIRMRPPRLPRPRPRPQYWPRP           false
8  RRIRLRPPRLPRPRPRPHKEPRP            true

====

system: Escherichia coli TOP10; assay: shrunken log2 fold change of peptide-encoding DNA abundance (4.5 h post-induction vs induction); higher = less antimicrobial activity (less host growth inhibition); details: time post-induction: 4.5 h; library: site-saturation at positions 5, 18, 19, 20;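 further: peptides expressed intracellularly from a pBAD plasmid library in pooled LB shake-flask culture, induced with 0.3% L-arabinose, DNA abundance read by NGS, three biological replicates, DESeq2 with apeglm shrinkage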
Quick reference for shrunken log2 fold change among some sequences
Readout Name: shrunken log2 fold change

> print(dat)
              sequence.data             test.target               readout.name  test.value
 1  RRIRIRPPRLPRPRPRPIHGPRP  Escherichia coli TOP10  shrunken log2 fold change     -0.0135
 2  RRIRCRPPRLPRPRPRPSGQPRP  Escherichia coli TOP10  shrunken log2 fold change     -0.0552
 3  RRIRHRPPRLPRPRPRPHPEPRP  Escherichia coli TOP10  shrunken log2 fold change      0.0129
 4  RRIRTRPPRLPRPRPRPMPDPRP  Escherichia coli TOP10  shrunken log2 fold change     -0.0705
 5  RRIRQRPPRLPRPRPRPSLHPRP  Escherichia coli TOP10  shrunken log2 fold change       -0.64
 6  RRIRVRPPRLPRPRPRPMQGPRP  Escherichia coli TOP10  shrunken log2 fold change     -0.0882
 7  RRIRTRPPRLPRPRPRPDIQPRP  Escherichia coli TOP10  shrunken log2 fold change      -0.531
 8  RRIRDRPPRLPRPRPRPHAYPRP  Escherichia coli TOP10  shrunken log2 fold change      -0.218
 9  RRIRPRPPRLPRPRPRPGHGPRP  Escherichia coli TOP10  shrunken log2 fold change       0.296
10  RRIRSRPPRLPRPRPRPCVVPRP  Escherichia coli TOP10  shrunken log2 fold change      -0.266
11  RRIRCRPPRLPRPRPRPHAFPRP  Escherichia coli TOP10  shrunken log2 fold change      -0.647
12  RRIRPRPPRLPRPRPRPEMGPRP  Escherichia coli TOP10  shrunken log2 fold change       0.268
13  RRIRIRPPRLPRPRPRPDSPPRP  Escherichia coli TOP10  shrunken log2 fold change     -0.0466
14  RRIRRRPPRLPRPRPRPTTRPRP  Escherichia coli TOP10  shrunken log2 fold change       0.941
15  RRIRVRPPRLPRPRPRPHEHPRP  Escherichia coli TOP10  shrunken log2 fold change     -0.0873
16  RRIRKRPPRLPRPRPRPSPKPRP  Escherichia coli TOP10  shrunken log2 fold change       0.057
17  RRIRHRPPRLPRPRPRPYRRPRP  Escherichia coli TOP10  shrunken log2 fold change      -0.142
18  RRIRWRPPRLPRPRPRPNMEPRP  Escherichia coli TOP10  shrunken log2 fold change      0.0936
19  RRIRSRPPRLPRPRPRPLKFPRP  Escherichia coli TOP10  shrunken log2 fold change     -0.0436
20  RRIRLRPPRLPRPRPRPQVEPRP  Escherichia coli TOP10  shrunken log2 fold change      0.0591
21  RRIRIRPPRLPRPRPRPSWAPRP  Escherichia coli TOP10  shrunken log2 fold change     -0.0867
22  RRIRDRPPRLPRPRPRPGNDPRP  Escherichia coli TOP10  shrunken log2 fold change      0.0652
23  RRIRCRPPRLPRPRPRPTNLPRP  Escherichia coli TOP10  shrunken log2 fold change      -0.656
24  RRIRRRPPRLPRPRPRPAKNPRP  Escherichia coli TOP10  shrunken log2 fold change       0.279
25  RRIRCRPPRLPRPRPRPCSRPRP  Escherichia coli TOP10  shrunken log2 fold change     -0.0999
26  RRIRARPPRLPRPRPRPRVIPRP  Escherichia coli TOP10  shrunken log2 fold change     -0.0156
27  RRIRARPPRLPRPRPRPWDGPRP  Escherichia coli TOP10  shrunken log2 fold change        0.72
28  RRIRLRPPRLPRPRPRPLEMPRP  Escherichia coli TOP10  shrunken log2 fold change       0.203
29  RRIRARPPRLPRPRPRPEPFPRP  Escherichia coli TOP10  shrunken log2 fold change      0.0204
30  RRIRMRPPRLPRPRPRPHTHPRP  Escherichia coli TOP10  shrunken log2 fold change    -0.00443
31  RRIRHRPPRLPRPRPRPYVVPRP  Escherichia coli TOP10  shrunken log2 fold change      0.0242
32  RRIRYRPPRLPRPRPRPPVEPRP  Escherichia coli TOP10  shrunken log2 fold change      -0.108

Entry source: the supplement of paper PMC9112550
